These data points were gathered from ChEMBL document CHEMBL5291721.

In what follows, each item is paired with its AC50 for Adenosine receptor A3 (Homo sapiens, UniProt P0DMS8).

Below: 8 compounds and their reported AC50.
| Compound | AC50 |
| --- | --- |
| OC(CCCN1CCCCC1)(c1ccccc1)c1ccccc1 | > 30 µM |
| COc1cc([C@@H]2c3cc4c(cc3[C@@H](O[C@@H]3O[C@@H]5CO[C@@H](c6cccs6)O[C@H]5[C@H](O)[C@H]3O)[C@H]3COC(=O)[C@H]23)OCO4)cc(OC)c1O [TENIPOSIDE] | > 30 µM |
| CCCCC/C=C\C/C=C\C/C=C\CCCCC(=O)O | > 30 µM |
| CCOc1cc(N)c(Cl)cc1C(=O)NCC1CN(Cc2ccc(F)cc2)CCO1 (centres undefined) [MOSAPRIDE] | 14.5 µM |
| CC1(C)O[C@@H]2C[C@H]3[C@@H]4CCC5=CC(=O)CC[C@]5(C)[C@@]4(F)[C@@H](O)C[C@]3(C)[C@]2(C(=O)CCl)O1 [HALCINONIDE] | > 30 µM |
| O=[N+]([O-])O[C@H]1CO[C@H]2[C@@H]1OC[C@H]2O[N+](=O)[O-] [ISOSORBIDE DINITRATE] | > 30 µM |
| Nc1ncnc(Nc2ccc(Cl)cc2)n1 | 7.95 µM |
| CCSc1ccc2c(c1)N(CCCN1CCN(C)CC1)c1ccccc1S2 | 6.62 µM |

Here's the next entry for you.
In: Endpoint output: AC50 of C1CNCCN1 . Value?
Out: > 30 µM
